Reported Emax by item:
Target: hPPARgamma (Homo sapiens)
Construct: expressed in transfected cells; host or cells: COS-7 (monkey kidney fibroblasts)
Sequence (P37231 238-503 limits assumed): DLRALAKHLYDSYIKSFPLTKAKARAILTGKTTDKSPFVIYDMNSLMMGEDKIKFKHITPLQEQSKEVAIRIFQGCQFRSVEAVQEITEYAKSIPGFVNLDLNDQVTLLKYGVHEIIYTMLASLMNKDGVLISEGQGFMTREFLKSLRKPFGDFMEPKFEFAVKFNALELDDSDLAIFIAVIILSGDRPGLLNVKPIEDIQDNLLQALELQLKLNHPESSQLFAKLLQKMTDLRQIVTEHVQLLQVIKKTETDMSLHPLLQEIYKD
Assay: PPAR activation: Gal4-hPPARγ chimera luciferase transactivation in COS-7 cells, Method 1
Type: cell-based
Details: COS-7, 24 h, maximum percentage response relative to the reference rosiglitazone, read-out: hPPARgamma % max
# value in %; strip the unit string

Solved entries (count: 8):
{"COMPOUND": "CC(C)(Oc1ccc(CCC(=O)c2ccc(-c3ccc(OC(F)(F)F)cc3)s2)c(Cl)c1Cl)C(=O)O", "Emax / %": 46}
{"COMPOUND": "O=C(O)COc1ccc(CCC(OCc2ccccc2)c2ccc(-c3ccc(C(F)(F)F)cc3)s2)cc1F (stereo not drawn)", "Emax / %": 30}
{"COMPOUND": "CC(C)(Oc1ccc(CCC(=O)c2ccc(-c3ccc(C(F)(F)F)cc3)s2)c(Cl)c1Cl)C(=O)O", "Emax / %": 11}
{"COMPOUND": "O=C(O)COc1ccc(CCC(=O)c2ccc(-c3ccc(C(F)(F)F)cc3)s2)c(Cl)c1Cl", "Emax / %": 32}
{"COMPOUND": "O=C(O)COc1ccc(CCC(=O)c2ccc(-c3ccc(C(F)(F)F)cc3)s2)cc1Br", "Emax / %": 37}
{"COMPOUND": "CC(C)(Oc1ccc(CCC(=NO)c2ccc(-c3ccc(C(F)(F)F)cc3)s2)c(Cl)c1Cl)C(=O)O (mixture of isomers)", "Emax / %": 24}
{"COMPOUND": "CC(C)(Oc1ccc(CCC(=O)c2ccc(-c3ccc(C(F)(F)F)cc3)s2)c(F)c1F)C(=O)O", "Emax / %": 30}
{"COMPOUND": "CCC(Oc1ccc(CCC(OCc2ccccc2)c2ccc(-c3ccc(C(F)(F)F)cc3)s2)cc1F)C(=O)O (stereo not drawn)", "Emax / %": 56}

Here is the next item to consider.
[Q] If you can, please state the reported Emax value of `O=C(O)COc1ccc(CCC(=O)c2ccc(-c3ccc(C(F)(F)F)cc3)s2)cc1` .
[A] 15
